Experiment: chemical genetic growth profiling, strain panel (AID 1159580);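 also: tested at 20 µM; growth read once vehicle control cultures reached saturation at 30 °C; 1 = growth at the plate median or of vehicle wells; lower values mean less growth of the strain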
Conditions: S. cerevisiae deletion strains, growth OD, locus YGR229C, strain SMI1, stronger effect = lower value
Hit rate of the full screen: of about 5,500 compounds, about 2,000 (36%) were called active. Roughly 18% stayed inconclusive and do not appear here. The list shows a part of the results.
Lab note - cut at 1 for normalized growth: true if strictly below, false if not.

Use the examples below as a reference point.
{"molecule": "CCCCC/C=C\\C/C=C\\C/C=C\\C/C=C\\CCCC(=O)NCC(=O)O", "cat": "true"}
{"molecule": "O=C(c1ccc(Cl)cc1)N1CCN(c2ccc(C(F)(F)F)cn2)CC1", "cat": "true"}
{"molecule": "CCCCC(=O)N(Cc1ccc(-c2ccccc2-c2nn[nH]n2)cc1)[C@H](C(=O)O)C(C)C", "cat": "true"}
{"molecule": "N[C@@]1(C(=O)O)CC[C@@H](C(=O)O)C1", "cat": "false"}
{"molecule": "COc1ccc2c(c1)[nH]c1c(C)nccc12", "cat": "false"}
{"molecule": "O=c1oc(Cl)c(Cl)c2ccccc12", "cat": "true"}
{"molecule": "CNC(=O)CSP(=S)(OC)OC", "cat": "false"}
{"molecule": "N#C/C(=N/Nc1ccc(C(F)(F)F)cc1)C(=O)C1CC1", "cat": "true"}

Then this molecule:
Record CCOc1nc2cccc(C(=O)OC(C)OC(=O)OC3CCCCC3)c2n1Cc1ccc(-c2ccccc2-c2nn[nH]n2)cc1 (stereo not given) : is its normalized growth strictly below 1?
true

* * *

Assay: chemical genetic growth profiling, strain panel (AID 1159580);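 also: tested at 20 µM; growth read once vehicle control cultures reached saturation at 30 °C; 1 = growth at the plate median or of vehicle wells; lower values mean less growth of the strain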
Conditions: S. cerevisiae deletion strains, growth OD, locus YJL092W, strain hpr5, stronger effect = lower value
Hit rate of the full screen: of about 5,500 compounds, about 2,000 (36%) were called active. Roughly 18% stayed inconclusive and do not appear here. The list shows a part of the results.
experimentalEndpoint: normalized growth
Answers are plain numbers.

Guide cases for normalized growth, answers given:
{"molecule": "O=C(O)c1cc2cc(Cl)ccc2[nH]1", "valueMeasured": 0.98}
{"molecule": "CC(=O)OC1CCC23C(=O)OC45CCC(C6=CC(=O)OC6)C4(C)CCC2C5CCC3(O)C1 (centres undefined)", "valueMeasured": 0.971}
{"molecule": "O=C(O)CCCN1C(=O)c2cccc3cccc(c23)C1=O", "valueMeasured": 1.01}
{"molecule": "O=c1ccc2ccc(O)c(O)c2o1", "valueMeasured": 1.01}
{"molecule": "COc1cc(O)c(C(=O)O)c(O)c1", "valueMeasured": 0.966}
{"molecule": "COP(=S)(OC)SCn1nnc2ccccc2c1=O", "valueMeasured": 1.01}
{"molecule": "C[N+]1(C)CCc2cc3c(cc2[C@H]1C1OC(=O)c2c1ccc1c2OCO1)OCO3 (some centres undefined)", "valueMeasured": 0.995}
{"molecule": "CC(C)CCCC(C)[C@H]1CCC2C3CC[C@H]4CC(=O)CC[C@]4(C)C3CC[C@@]21C (some centres undefined)", "valueMeasured": 0.961}
{"molecule": "COc1cc(OC)c2c(c1Cl)OC1(C2=O)C(O)=CC(=O)CC1C (centres undefined)", "valueMeasured": 1.01}
{"molecule": "CSCCC(NC=O)C(=O)NC(CC(C)C)C(=O)NC(Cc1ccccc1)C(=O)O (centres undefined)", "valueMeasured": 0.993}

Record normalized growth for all entries; do not skip any.
1. Cc1cc(O)c2c(c1O)C(=O)c1c(O)cc(C)c(O)c1C2=O
2. Cc1cccc(N(C)C(=S)Oc2ccc3ccccc3c2)c1
3. CC(C)=CCOc1cc2oc(=O)ccc2cc1O
4. COc1cc(O)c(C)c(O)c1
5. O=C(O)c1cccc(O)c1O
6. CC(C(=O)O)c1ccc(N2Cc3ccccc3C2=O)cc1 (centres undefined)
7. COc1ccc2[nH]cc(CCNC(C)=O)c2c1

0.965
0.99
0.927
1.01
1.02
0.959
0.974

Dear colleague, could you send me normalized growth for each of the items below? Thanks.
1. CC1(C)S[C@@H]2[C@H](NC(=O)COc3ccccc3)C(=O)N2[C@H]1C(=O)O
2. COc1cc2ccc(=O)oc2c(OC)c1OC

1. 0.976
2. 0.967

These entries and their values trace back to PubChem BioAssay AID1159580.
